Test system: human ASM cells
protocol: Assay of cAMP PDE activity in ASM cell lysates
Type: cell-based
details: cells incubated 24 hr with the agent (PGE2 or forskolin 100 μM; salmeterol or isoproterenol 10 μM)
PDE activity, fold above control reference
Reply with just the number (in fold).

# molecule, unit annotation, assay result
data = [
    ("C=C[C@@]1(C)CC(=O)[C@]2(O)[C@@]3(C)[C@@H](O)CCC(C)(C)[C@@H]3[C@H](O)[C@H](OC(C)=O)[C@@]2(C)O1 [forskolin]", "fold", 4.01),
]

Field: next molecule
Could you share which PDE activity, fold above control value was measured for CCCCC[C@H](O)/C=C/[C@H]1[C@H](O)CC(=O)[C@@H]1C/C=C\CCCC(=O)O [PGE2, prostaglandin (PG)E2] ?
3.74
